Every entry's value here was drawn from PubChem BioAssay AID1220.

biological target: Mannose-6-phosphate isomerase (Homo sapiens); experiment: MPI inhibition at elevated mannose 6-phosphate – biochemical, fluorescence intensity, high mannose 6-phosphate, primary screen (AID 1220); conditions: recombinant PMI enzyme, coupled fluorescence intensity; at 20 µM; hits give high values
Screen size: about 190,000 compounds; about 1,300 (0.68%) were called active. The sample holds actives, similar compounds and a random draw of the others, so the mix is not that of the screen.
readoutName: inhibition (%)

compound | measurement
O=S(=O)(c1ccc(Cl)cc1)N1CCN(Cc2ccc(O)c3ncccc23)CC1 | 45.3
O=C(Nc1nccs1)c1ccc(CSc2nnnn2-c2ccccc2)cc1 | -6.7
COC(=O)C1=C(C)N(CCc2ccc(OC)c(OC)c2)C(=O)C1 | -10.6
O=C1NC2=C(CCc3ccccc32)C(c2ccccc2)N1 (configuration not stated) | 2.3
CC(C)CN1C(=O)/C(=C(/C#N)C(=O)NC2CCCCC2)c2ccccc21 | 20
Cc1cc(C)n2c(SC/C(O)=C(\C#N)c3nc4ccccc4[nH]3)nnc2n1 | 53.4
COc1ccc(NC(=O)c2cccc(S(=O)(=O)N3CCOCC3)c2)cn1 | -1.9
CC(=O)Nc1ccc(C2(O)COc3ccccc3O2)cc1 (configuration not stated) | -2
O=c1[nH]c2ccccc2n2c(-c3ccncc3)nnc12 | 0.5
CCN(C(=O)COC(=O)c1ccc2[nH]c3c(c2c1)CCCC3)C1CCS(=O)(=O)C1 (configuration not stated) | -6
Cc1c2c(c(C)n1C)C(C(=O)NC1CCCCC1)N(Cc1ccccc1)C2=O (configuration not stated) | -4.7
COc1ccc(-n2ccnc2SCC(=O)NCc2ccco2)c(OC)c1 | 5.5
C=CCn1c(SCC)nc2sc3c(c2c1=O)CCc1ccccc1-3 | 5.8
Cc1ccc(NC(=O)c2cc(S(=O)(=O)N3CCCCC3)ccc2N2CCOCC2)cc1F | 9.5
COc1ccccc1N1CCN(Cc2ccc(OC)c(OC)c2OC)CC1 | -2.8
COc1ccc(CNCc2ccco2)cc1OCc1ccccc1 | 10.6
CCOC(=O)CNC(=O)Nc1ccccc1C(=O)OC | -7.2
Cc1ccccc1-n1c(SC/C(O)=C(\C#N)c2nc3ccccc3[nH]2)nnc1-c1ccncc1 | 20.6
Cc1cccc(C(=O)NCCN(C)C)c1 | 3
Cn1cnnc1SC/C(O)=C(\C#N)c1nc2ccccc2[nH]1 | 0.7
C#CC(CC)(CC)NC(=O)Nc1ccccc1C(=O)OC | 64.6
C=CCSc1nnc(NC(=O)CSc2nc3ccccc3[nH]2)s1 | 4.3
NC(=O)c1c(NC(=O)c2cc3ccccc3o2)sc2c1CCC2 | 2.2
O=[N+]([O-])c1cccnc1NCc1cccs1 | 3.1
COC(=O)c1ccccc1N/C=C1\CCc2c(c(C)nn2-c2ccccn2)C1=O | 73.6
COC(=O)c1ccccc1NC(=S)N1CCN(c2ccccn2)CC1 | 5.5
COc1cc(NC(=O)Cn2cnc3ccccc3c2=O)c(OC)cc1Cl | 14.9
O=[N+]([O-])c1cc(-c2ncccn2)cs1 | -6.6
CCOC(=O)Cn1cc(C(=O)c2cccs2)c2ccccc21 | 5.6
O=C(NC1=NCCS1)c1cccc(S(=O)(=O)N2CCCCC2)c1 | 7.1
O=C1OC(Nc2ccc(Br)cc2F)c2ccccc21 (configuration not stated) | -12.4
O=C(Cn1cncn1)NCCC(c1ccccc1)c1ccccc1 | 5.2
O=C(CCOc1ccccc1)Nc1cccc([N+](=O)[O-])c1 | -0.7
Cc1cccc(Nc2nc(-c3c(C)nc4ccccn34)cs2)c1 | 47
N#Cc1ccc(OCC(=O)NCC2(N3CCCCC3)CCCCC2)cc1 | -10.6
O=C(COC(=O)/C=C/c1cccc([N+](=O)[O-])c1)NCCCN1CCCC1=O | -2.9
Cc1ccc(Nc2nc(-c3c(C)nc4ccccn34)cs2)cc1 | 57.1
O=C1CSC(c2cccc(Cl)c2Cl)N1c1ccccn1 (configuration not stated) | 12.3
CC12CC(NC(=O)N1c1cccc(C(=O)N3CCN(c4ccccn4)CC3)c1)c1ccccc1O2 (configuration not stated) | -3.4
O=C(CN1C(=O)COc2ccccc21)N1CCc2ccccc21 | 1.2
O=C1OC(Nc2cc(Br)cc3cccnc23)c2ccccc21 (configuration not stated) | 50.7
Oc1ccc2ccccc2c1C1Nc2cccc3cccc(c23)N1 | 10.6
OCCCc1cn(-c2ccccc2)c2ccccc12 | -13.6
Cc1ccc2cccc(NC3OC(=O)c4ccccc43)c2n1 (configuration not stated) | 59.9
COc1ccc(NC(=O)CSc2ncnc3c2cnn3Cc2ccccc2)cc1 | 8.2
COc1ccc(CCC(=O)NNC(=S)NCc2ccc(F)cc2)cc1 | 1.2
CC(C)CNC(=O)COC(=O)c1cc(S(=O)(=O)N(C)C)ccc1N1CCCC1 | 4.7
